// reported pIC50 for each item listed
# Target or test system: UniProtKB P29274
# Experiment description: Adenosine A2a receptor whole cell cyclic AMP assay
# Condition set: A2a @ 1 μM Adenosine (A2a cAMP IC50), HEK293 cells stably expressing human A2a; 1 μM adenosine; 1 hour compound treatment
pIC50: −log10 of the molar value.

Worked cases, pIC50 given:
1. Nc1nc(-c2ccc(F)cc2)c(-c2cc3cnccc3s2)n2nnnc12	6.00 to 7.00
2. Cc1cc(-c2nc(N)c3nnnn3c2-c2ccc(F)cc2)cc(Cl)n1	< 6.00
3. Cc1ccnc2ccc(-c3c(-c4cccnc4)nc(N)c4nnnn34)cc12	6.00 to 7.00

Record Cc1cnc2c(Cl)cc(-c3c(-c4ccc(F)cc4)nc(N)c4nnnn34)cn12 ; system UniProtKB P29274; pIC50 = 6.00 to 7.00

Value (pIC50, UniProtKB P29274) for record COc1ccc(-c2nc(N)c3nnnn3c2-c2ccc3ncn(C)c3c2)cc1 = > 7.00

Value sought: pIC50, system UniProtKB P29274, item Cc1cc(-c2c(-c3cccc(F)c3)nc(N)c3nnnn23)cc(Cl)n1 . Result: 6.00 to 7.00

Field pIC50 (system: UniProtKB P29274) for entry Cn1cnc2ccc(-c3c(-c4ccc(F)cc4)nc(N)n4nnnc34)cc21 = > 7.00

Per the reported UniProtKB P29274 data, Cc1nc2ccc(-c3c(-c4ccc(F)cc4)nc(N)c4nnnn34)cn2n1 has pIC50 of < 6.00

Tested system UniProtKB P29274; pIC50 recorded for Nc1nc(-c2ccc(F)cc2)c(-c2ccc3ncsc3c2)n2nnnc12 was 6.00 to 7.00

Observed pIC50 on UniProtKB P29274, entry Nc1nc(-c2ccc(F)cc2)c(-c2cc(Cl)nc(C(F)(F)F)c2)n2nnnc12 , equals 6.00 to 7.00

---

Let's look at some molecules and their measured pIC50.
# Target or test system: human adenosine A2a receptor (Homo sapiens, UniProt P29274)
# Sequence (P29274 whole entry): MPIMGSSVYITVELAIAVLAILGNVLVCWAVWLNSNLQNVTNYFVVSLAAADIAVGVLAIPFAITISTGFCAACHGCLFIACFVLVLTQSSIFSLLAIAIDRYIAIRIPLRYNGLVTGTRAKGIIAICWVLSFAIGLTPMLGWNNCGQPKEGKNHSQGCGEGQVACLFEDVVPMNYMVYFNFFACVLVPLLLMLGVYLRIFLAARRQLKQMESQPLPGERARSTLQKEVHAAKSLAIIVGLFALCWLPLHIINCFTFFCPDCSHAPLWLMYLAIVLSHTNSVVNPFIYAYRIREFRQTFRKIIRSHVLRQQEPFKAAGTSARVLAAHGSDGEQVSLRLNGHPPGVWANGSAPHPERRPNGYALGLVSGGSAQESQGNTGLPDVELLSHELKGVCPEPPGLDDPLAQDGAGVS
# Experiment description: Adenosine A2a receptor whole cell cyclic AMP assay
# Condition set: A2a @ 1 μM Adenosine (A2a cAMP IC50), HEK293 cells stably expressing human A2a; 1 μM adenosine; 1 hour compound treatment
pIC50: −log10 of the molar value.

1. Cc1c(C#N)cccc1-c1cc(-c2cn(Cc3cccc(C(C)(C)O)n3)nn2)nc(N)n1 [AB928, reference compound]	6.00 to 7.00
2. Cc1cc(-c2c(-c3ccc(F)cc3)nc(N)c3nnnn23)cc(Cl)n1	6.00 to 7.00
3. Cc1ccnc2ccc(-c3c(-c4ccc(F)cc4)nc(N)c4nnnn34)cc12	> 7.00
4. COc1ccc(-c2nc(N)n3nnnc3c2-c2ccc3ncc(C)n3c2)cc1	6.00 to 7.00
5. Nc1nc(-c2ccc(F)cc2)c(-c2ccc3ncoc3c2)n2nnnc12	6.00 to 7.00

Short answer for Cc1cc(-c2c(-c3ccc(F)cc3)nc(N)n3nnnc23)cc(C)n1 : pIC50 was > 7.00

Sample Cc1cn2cc(-c3c(-c4ccc(F)cc4)nc(N)c4nnnn34)cc(F)c2n1 ; pIC50 observed: < 6.00

So for Cc1ccnc2ccc(-c3c(-c4ccccc4C#N)nc(N)c4nnnn34)cc12 , the logged pIC50 turned out to be 6.00 to 7.00

Reported pIC50 for Cn1cnc2ccc(-c3c(-c4ccc(F)cc4)nc(N)c4nnnn34)cc21 was > 7.00

---

pIC50 values for the compounds below.
# Target or test system: human adenosine A2a receptor (Homo sapiens, UniProt P29274)
# Experiment description: Adenosine A2a receptor whole cell cyclic AMP assay
# Condition set: A2a @ 1 μM Adenosine (A2a cAMP IC50), HEK293 cells stably expressing human A2a; 1 μM adenosine; 1 hour compound treatment
pIC50: −log10 of the molar value.

1. Cn1cc(-c2c(-c3ccc(F)cc3)nc(N)n3nnnc23)ccc1=O	6.00 to 7.00
2. N#Cc1cnc2ccc(-c3c(-c4ccc(F)cc4)nc(N)c4nnnn34)cn12	> 7.00
3. Nc1nc(-c2ccc(F)cc2)c(-c2cc(Cl)nc(C(F)(F)F)c2)c2nnnn12	6.00 to 7.00
4. Cc1cc(-c2c(-c3ccc(F)cc3)nc(N)n3nnnc23)cc(Cl)n1	6.00 to 7.00

Now look at this entry.
Just so you know, measured pIC50 for Cc1cnc2ccc(-c3c(-c4ccc(F)cc4)nc(N)c4nnnn34)cn12 came out at > 7.00

---

# Target or test system: UniProtKB P29274
# Experiment description: Adenosine A2a receptor whole cell cyclic AMP assay
# Condition set: A2a @ 1 μM Adenosine (A2a cAMP IC50), HEK293 cells stably expressing human A2a; 1 μM adenosine; 1 hour compound treatment
pIC50: −log10 of the molar value.
The reader will find reported pIC50 values listed item by item below.

These recorded examples may help you get a feel for the data.
1. Cc1ccnc2ccc(-c3c(-c4cccc(C#N)c4)nc(N)c4nnnn34)cc12	6.00 to 7.00
2. Cn1cnc2ccc(-c3c(-c4ccc(C#N)cc4)nc(N)n4nnnc34)cc21	6.00 to 7.00
3. Cn1cc(-c2c(-c3ccc(F)cc3)nc(N)c3nnnn23)ccc1=O	< 6.00
4. Cc1ccnc2ccc(-c3c(-c4ccccc4Cl)nc(N)c4nnnn34)cc12	6.00 to 7.00
5. COc1ccc(-c2nc(N)c3nnnn3c2-c2ccc3ncc(C)n3c2)cc1	6.00 to 7.00

So for Cc1cnc2ccc(-c3c(-c4ccc(C#N)cc4)nc(N)c4nnnn34)cn12 , the logged pIC50 turned out to be 6.00 to 7.00

---

The entries below come with measured IC50 values attached.
# Target or test system: human adenosine A2a receptor (Homo sapiens)
# Experiment description: Adenosine A2a receptor whole cell cyclic AMP assay
# Condition set: A2a @ 1 μM Adenosine (A2a cAMP IC50), HEK293 cells stably expressing human A2a; 1 μM adenosine; 1 hour compound treatment

// solved cases for IC50 follow
1. Cc1cc(-c2c(-c3ccc(F)cc3)nc(N)n3nnnc23)cc(C(F)F)n1 [1-58]	100 to 1000 nM
2. Cc1cc(-c2c(-c3ccccc3F)nc(N)c3nnnn23)cc(Cl)n1 [1-26]	100 to 1000 nM
3. Nc1nc(-c2ccc(F)cc2)c(-c2ccc3ncccc3c2)n2nnnc12 [1-11]	< 100 nM

The recorded IC50 for Nc1nc(-c2ccc(F)cc2)c(-c2ccc3nccc(Cl)c3c2)c2nnnn12 [1-35] is < 100 nM

For record Cc1cc(-c2c(-c3ccccc3)nc(N)c3nnnn23)cc(Cl)n1 [1-32] the listed IC50 is 100 to 1000 nM

---

Overview of recorded IC50 for various compounds
# Target or test system: human adenosine A2a receptor (Homo sapiens)
# Experiment description: Adenosine A2a receptor whole cell cyclic AMP assay
# Condition set: A2a @ 1 μM Adenosine (A2a cAMP IC50), HEK293 cells stably expressing human A2a; 1 μM adenosine; 1 hour compound treatment

Example results:
1) COc1ccc(-c2nc(N)n3nnnc3c2-c2cc(Cl)nc(C(F)(F)F)c2)cc1	0.1 to 1 µM
2) Cc1cc(Cl)cc(-c2c(-c3ccc(F)cc3)nc(N)c3nnnn23)c1	> 1 µM
3) COc1cc(-c2c(-c3ccc(F)cc3)nc(N)c3nnnn23)cc2cccnc12	0.1 to 1 µM
4) Cc1ccnc2ccc(-c3c(-c4ccc(F)cc4)nc(N)n4nnnc34)cc12	< 0.1 µM

Could you now look at the following compound, please?
Record Nc1nc(-c2ccc(F)cc2)c(-c2ccc3ncccc3c2)c2nnnn12 , field IC50: 0.1 to 1 µM

---

# Target or test system: human adenosine A2a receptor (Homo sapiens)
# Experiment description: Adenosine A2a receptor whole cell cyclic AMP assay
# Condition set: A2a @ 1 μM Adenosine (A2a cAMP IC50), HEK293 cells stably expressing human A2a; 1 μM adenosine; 1 hour compound treatment
pIC50: −log10 of the molar value.
List of pIC50 values.

In the examples that follow, each entry is paired with its recorded pIC50.
1) Nc1nc(-c2ccc(F)cc2)c(-c2ccc3ncc(CO)n3c2)n2nnnc12 [1-20]	> 7.00
2) Nc1nc(-c2ccc(F)cc2)c(-c2ccc3ncc(C(F)F)n3c2)n2nnnc12 [1-48]	6.00 to 7.00

As a next step, examine the compound that follows.
Looking up Cc1ccnc2ccc(-c3c(-c4ccncc4)nc(N)c4nnnn34)cc12 [1-46] , I found its pIC50 recorded as 6.00 to 7.00

---

# Target or test system: human adenosine A2a receptor (Homo sapiens, UniProt P29274)
# Experiment description: Adenosine A2a receptor whole cell cyclic AMP assay
# Condition set: A2a @ 1 μM Adenosine (A2a cAMP IC50), HEK293 cells stably expressing human A2a; 1 μM adenosine; 1 hour compound treatment
Quantity kind: IC50

Before answering, review these 2 worked examples.
1. Nc1nc(-c2ccc(F)cc2)c(-c2cc(F)c3ncccc3c2)n2nnnc12 [1-19]	100 to 1000 nM
2. Cc1cc(-c2c(-c3ccc(F)cc3)nc(N)c3nnnn23)cc(C(F)F)n1 [1-54]	100 to 1000 nM

With human adenosine A2a receptor (Homo sapiens, UniProt P29274) as the test system, Nc1nc(-c2ccc(F)cc2)c(-c2ccc3ncncc3c2)n2nnnc12 [1-15] showed IC50 of 100 to 1000 nM

IC50 of Nc1nc(-c2ccc(F)cc2)c(-c2ccc3ncnn3c2)n2nnnc12 [1-8] , assay on human adenosine A2a receptor (Homo sapiens, UniProt P29274), is > 1000 nM

Tested on human adenosine A2a receptor (Homo sapiens, UniProt P29274), the item COc1ccc(-c2nc(N)c3nnnn3c2-c2ccc3nccc(C)c3c2)cc1 [1-38] showed IC50 equal to 100 to 1000 nM

Reference source for all entries: patent US12065444B2
